Overview of recorded protein stability index for various variants
B1: SOAT2 (parent)
chain: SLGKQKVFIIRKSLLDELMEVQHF

Variants of: B1
Assay: protein stability index of a GFP-peptide fusion (GPS, HEK-293T) (PSI 1-6); higher = more stable;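 also: lentivirally expressed fusions sorted by FACS into six bins by GFP to DsRed ratio, PSI derived from sequencing read proportions per bin multiplied by bin number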
Settings: c terminus: a fixed tail appended
observedProperty: protein stability index

1) F8L :: 2.02
2) L15F :: 3.01
3) E20I :: 2.03
4) F8S :: 2.03
5) L2R :: 2.42
6) K4D :: 1.91
7) H23V :: 3.33
8) L2H :: 3.11
9) H23D :: 1.67
10) E20H :: 1.45
